So I've got a bunch of compounds here, and I need their TGI values.
# System: HOP-62 NSCLC
# TEST: NCI tumour cell line growth inhibition, 48 h
Kindly provide the numeric value in µM only, without the unit symbol.

Query: Any idea what its TGI is? The compound is "CC(=O)N1CCN(CCNC(=O)n2cc(-c3ccncc3)c(-c3cc(O)cc(Cl)c3)n2)CC1"
Reply: 32.6

Query: Also check "CCC[CH2][Sn]([CH2]CCC)([S]C#N)[S]C#N"
Reply: 3.58

----------
# Test system: M14 melanoma
# TEST: NCI tumour cell line growth inhibition, 48 h; in the data active means GI50 below about 0.43 µM; inactive means the rest
Thanks in advance; please answer with one of these: TRUE = active, FALSE = inactive

Query: Hey, what did the test say about "Clc1ccc(-c2c3ccc(=[N+]4CCCCC4)cc-3oc3cc(N4CCCCC4)ccc23)cc1" ?
Reply: TRUE

Query: Also check CCN(CC)CCCC(C)Nc1cc(-c2cccc(OC(F)(F)F)c2)nc2ccc(N3CCCC3)cc12 (centres undefined)
Reply: TRUE

Query: Also check "CCCc1cc(=O)n2c(C(=O)Nc3ccc(F)cc3)c(C(=O)Nc3ccc(F)cc3)sc2n1"
Reply: FALSE

Query: Also check "[N-]=[N+]=NCCCn1c2c(c3ccc([N+](=O)[O-])cc3c1=O)C(=O)c1cc(Br)ccc1-2"
Reply: FALSE

Query: Also check "O=C(/C=C/C=C/c1ccccc1)c1ccco1"
Reply: FALSE

Query: Also check COc1ccccc1C1C(C#N)=C(N)Oc2n[nH]c(C)c21 (centres undefined)
Reply: FALSE

Query: Also check "CCCOC(=O)c1c(C)n(C)c2scc[n+]12"
Reply: FALSE

Query: Also check "COc1ccc(C(=O)/C=C/c2cc(-c3cc(OC)c(OC)c(OC)c3)n[nH]2)cc1"
Reply: FALSE

Query: Also check CCCCCC(O)C(O)CCC[C@H](O)[C@H]1CC[C@H]([C@H]2CC[C@H]([C@H](O)CCCCCCCCCCCCC3=C[C@H](C)OC3=O)O2)O1 (some centres undefined)
Reply: FALSE

----------
# Tested on: MCF7 breast
# TEST: NCI tumour cell line growth inhibition, 48 h
So I've got a bunch of compounds here, and I need their GI50 values.

Query: Any idea what its GI50 is? The compound is "O=C(CN(/C=C/C(=O)C(F)(F)F)c1ccc(Cl)cc1)c1ccc(Cl)c(Cl)c1"
Reply: 3.42 µM

Query: Also check "CNCCCNc1nc2ccccc2c2c(=O)c3cc(OC)ccc3sc12"
Reply: 1.69 µM

Query: Also check "CC(=O)N1CCN(CCNC(=O)n2cc(-c3ccncc3)c(-c3cc(O)cc(Cl)c3)n2)CC1"
Reply: 14.7 µM

Query: Also check "COc1cccc2cc(N(C)c3nc(C)nc4c3CCC4)ccc12"
Reply: < 0.01 µM

----------
# System: LXFL 529 NSCLC
# TEST: NCI tumour cell line growth inhibition, 48 h
So I've got a bunch of compounds here, and I need their TGI values.

Query: Any idea what its TGI is? The compound is "CCCCCC(=O)Nc1nc2nc[nH]c2c(=O)[nH]1"
Reply: > 100 µM

Query: Also check "CSc1cnc2ccccc2c1Sc1c[nH]c2ccccc2c1=O"
Reply: 46.3 µM

Query: Also check N#Cc1ccccc1NC(=O)C(=O)C1NC(=S)NC1=O (configuration not stated)
Reply: > 100 µM

Query: Also check "COc1ccc2nc(C(=O)c3ccccc3)c(C)cc2c1"
Reply: > 100 µM

Query: Also check "CCOC(=O)/C(=C/c1cccc(Cl)c1)N(CC)CC"
Reply: > 100 µM

Query: Also check "COc1ccc(Oc2ccccc2N)cc1"
Reply: > 100 µM

Query: Also check COC1=CC(C2c3cc4c(cc3[C@@H](Nc3ccc(F)cc3)C3COC(=O)[C@H]23)OCO4)=CC(=O)C1=O (some centres not stated)
Reply: 16.3 µM

Query: Also check "Cc1cccc(C(=O)O)c1C(=O)c1cccc2ccccc12"
Reply: > 100 µM

Query: Also check "COc1ccc(C)cc(=O)c1O"
Reply: > 100 µM

Query: Also check "O=c1c2ccccc2nc2ccc3c(Cl)[nH][nH]c3c12"
Reply: > 100 µM

Query: Also check "CC1=C(SC#N)S(=O)(=O)N(c2ccccc2)C(C)=C1SC#N"
Reply: > 100 µM

Query: Also check "COCCOc1cc(C)cc(/C=C(C)/C=C/C2=C(C)CCCC2(C)C)n1"
Reply: > 100 µM

----------
So I've got a bunch of molecules here, and I need their GI50 values.
# Test system: NCI/ADR-RES ovarian
# TEST: NCI tumour cell line growth inhibition, 48 h

Query: Any idea what its GI50 is? The molecule is C=C1C(O)C2CC(C)(CO)C(=O)C2=C(CC(C)C)C12CC2 (stereo not drawn)
Reply: > 100000 nM

Query: Also check CCN(CC)CCCC(C)Nc1cc(-c2cccc(OC(F)(F)F)c2)nc2ccc(N3CCCC3)cc12 (stereo not drawn)
Reply: 45.3 nM

Query: Also check "Cc1c(C#N)cccc1[C@@H](C)Nc1nnc(C)c2cnc(N3CCOCC3)cc12"
Reply: 35500 nM

Query: Also check "O=C(Nc1ccccc1I(=O)=O)C1CCCCC1"
Reply: > 100000 nM

Query: Also check "CCCOC(=O)c1c(C)n(C)c2scc[n+]12"
Reply: > 100000 nM

Query: Also check "O=C(NCC(F)(F)F)Nc1cccc(-c2cnc3cc(-c4ccc(F)cc4)ccn23)c1"
Reply: 1820 nM

Query: Also check "COc1ccc(-c2cncn2-c2cc(OC)c(OC)c(OC)c2)cc1"
Reply: 65.2 nM

Query: Also check "C#C[C@@]1(O)[C@@H](CO)O[C@@H](n2cc(I)c3c(N)ncnc32)[C@@H]1O"
Reply: 73.1 nM

----------
# Tested on: T-47D breast
# TEST: NCI tumour cell line growth inhibition, 48 h
So I've got a bunch of compounds here, and I need their TGI values.
Kindly provide the numeric value in µM only, without the unit symbol.

Query: Any idea what its TGI is? The compound is CC1CCC2(OC1)OC1C(O)C3C4CCC5CC(OC6OC(CO)C(OC7OC(CO)C(O)C(OC8OCC(O)C(O)C8O)C7OC7OC(CO)C(O)C(OC8OC(CO)C(O)C(O)C8O)C7O)C(O)C6O)C(O)CC5(C)C4CCC3(C)C1C2C (stereo unspecified)
Reply: 10.4

Query: Also check "COc1cccc2cc(N(C)c3nc(C)nc4c3CCC4)ccc12"
Reply: 41.8

Query: Also check "Cc1cc(C)c(C#N)c(Sc2nc(C)c([N+](=O)[O-])c(C)c2C#N)n1"
Reply: 5.59

Query: Also check "CC(C)Oc1cccc(N2C(Nc3ccccc3)=Nc3ccncc3S2(=O)=O)c1"
Reply: 90.1

Query: Also check "c1ccc(OCCC[P+](c2ccccc2)(c2ccccc2)c2ccccc2)cc1"
Reply: 29.5

----------
# System: OVCAR-8 ovarian
# TEST: NCI tumour cell line growth inhibition, 48 h
Record t whenever TGI is at 30 µM or higher; record f when lower.

Query: Please tell me: is the compound "COC(=O)Cn1cnc2c(Cl)nc(Nc3ccccc3)nc21" at or over 30 µM in terms of TGI?
Reply: t

Query: Also check Cc1ccccc1NC(=O)CC(=O)NNC(Sc1ccccc1)c1cc(N=Nc2ccc(Br)cc2)ccc1O (stereo not given)
Reply: f

Query: Also check O=C(NNc1ccc(Cl)cc1)C1CCC(CNS(=O)(=O)c2ccccc2Cl)CC1 (stereo not given)
Reply: t

Query: Also check "O=[N+]([O-])/C(C(Cl)=C(Cl)Cl)=C(/Nc1cccc2cccnc12)n1nnc2ccccc21"
Reply: t

Query: Also check O=c1[nH]c(=O)n(C2OC(CO)C(O)C2O)cc1OCCCc1ccccc1 (stereo not given)
Reply: t

Query: Also check "Cc1cc(S(=O)(=O)/N=C(/NN)Nc2ccc(Cl)cc2)c(S)cc1Cl"
Reply: f

Query: Also check CCC(=O)OC1CCn2c1nc1c2C(=O)C(C)=C(NC(C)=O)C1=N (stereo not given)
Reply: f

Query: Also check "Cc1ccc(C)c(N2C(=O)C(=O)C(c3nc4ccccc4o3)C(=O)C2=O)c1"
Reply: t

Query: Also check N#Cc1c(N)nc2c3c1NC(=O)C(C(N)=O)C3c1ccccc1O2 (stereo not given)
Reply: t

----------
So I've got a bunch of compounds here, and I need their TGI values.
# System: COLO 205 colon
# TEST: NCI tumour cell line growth inhibition, 48 h
Kindly provide the numeric value in µM only, without the unit symbol.

Query: Any idea what its TGI is? The compound is COc1cc(C2C3=C(COC3=O)N(CCO)c3cc4c(cc32)OCCO4)cc(OC)c1OC (stereo not given)
Reply: 0.409

Query: Also check "COc1ccc(-c2cncn2-c2cc(OC)c(OC)c(OC)c2)cc1"
Reply: 9.7

Query: Also check "CC1=C(C(=O)Nc2ccccc2)C(c2ccccc2Cl)C(C(=O)Nc2ccccc2)=C(C)N1"
Reply: 34.3

Query: Also check N#CC1=C(N)Oc2c(ccc3ccccc23)C1c1cc(=O)oc2ccc(Cl)cc12 (stereo not given)
Reply: 8.27

Query: Also check [N-]=[N+]=NCC(O)Cn1cnc2c(NC(=O)c3ccccc3)ncnc21 (stereo not given)
Reply: 76.9

Query: Also check "O=C(C(=O)n1ncc(Cl)c(Cl)c1=O)n1ncc(Cl)c(Cl)c1=O"
Reply: 29

Query: Also check CC(=O)O[C@H]1CC2C(C3CCC(C(C)CCC(N)=O)[C@]31C)[C@H](OC(C)=O)C[C@@H]1CC3(CC[C@]21C)OOC1(CC[C@]2(C)C4C[C@H](OC(C)=O)[C@]5(C)C(C(C)CCC(N)=O)CCC5C4[C@H](OC(C)=O)C[C@@H]2C1)OO3 (stereo not given in full)
Reply: 2.84

Query: Also check "O=C(NCCCc1cn[nH]c1)c1ccc(-c2ccncc2)c(C#Cc2ccc(F)cc2)c1"
Reply: 46.1
